TGI for assorted molecules
System: HT29 colon
PROTOCOL_NOTES: NCI tumour cell line growth inhibition, 48 h

Solved cases below.
CCCCCCCNC(P(=O)(O)O)P(=O)(O)O | > 100 µM
COC(=O)c1ccc(NCc2c(O)ccc(O)c2Br)cc1Cl | 40.2 µM
O=C(Nc1c(C(=O)NC2CCCCC2)[nH]c(=O)[nH]c1=O)c1ccc(Cl)cc1 | > 100 µM

Query block: Give the reported TGI for Clc1cc2c(nn1)Nc1ccccc1S2 (system: HT29 colon).
Result block: > 100 µM

Query block: Give the reported TGI for CC(=O)O[C@H]1C=CC(=O)C(C)CC1C (stereo partly specified) (system: HT29 colon).
Result block: > 100 µM
